Test system: K. pneumoniae ATCC 700603
ASSAY NOTES: MIC/MBC broth microdilution, K. pneumoniae
Format: cell-based
MEASUREMENT SETUP: water additive EtOH
Text: S. aureus (ATCC 29213),S. pyogenes (ATCC 19615),Streptococcus agalactiae (ATCC 27956),Escherichia coli (ATCC 25922),Proteus vulgaris (ATCC 6896),K. pneumoniae (ATCC 700603) andP. aeruginosa (ATCC 10145) reference strains, as well asStaphylococcus cohnii, Enterococcus faecalis, Staphylococcus schleiferi, Staphylococcus intermedius and Streptococcus mutans clinical isolates, were used to test the antibacterial activity of the peptidomimetics. […]
Residues, ends and D or L forms follow the SMILES beside them.
MEASURED ENDPOINT: MIC

Worked set:
COMPOUND | TEST SYSTEM | MEASURED ENDPOINT | OBSERVED RESULT
CC(C)C[C@H](NC(=O)[C@H](CCCCNC(=N)N)NC(=O)OCc1ccccc1)C(=O)N[C@H](CNC(=O)/C=C/c1ccccc1)C(C)C [Compound A-134] | K. pneumoniae ATCC 700603 | MIC | > 512 µg/mL
Cc1ccccc1COC(=O)N[C@@H](CCCNC(=N)N)C(=O)N[C@@H](CC(C)C)C(=O)N[C@H](CNC(=O)/C=C/c1ccccc1)C(C)C [Compound A-210] | K. pneumoniae ATCC 700603 | MIC | > 512 µg/mL

Ask: For K. pneumoniae ATCC 700603, provide MIC of CC(C)[C@H](NC(=O)[C@H](Cc1c[nH]cn1)NC(=O)[C@H](CCCNC(=N)N)NC(=O)OCc1ccccc1)C(=O)NCCc1ccccc1 [Compound A-219] (HELM PEPTIDE1{[O=C(OCc1ccccc1)[*:2]].R.H.V.[c1ccc(CCN[*:1])cc1]}$$$$V2.0) please.
Result: > 512 µg/mL

----------
// values below are reported MBC
Test system: S. agalactiae ATCC 27956
ASSAY NOTES: MIC/MBC broth microdilution, S. agalactiae
Type: cell-based, Streptococcus agalactiae
MEASUREMENT SETUP: S. agalactiae, water additive EtOH
Residues, ends and D or L forms follow the SMILES beside them.
Field format: number, assumed µg/mL, no unit text.

MOLECULE | MEASURED ENDPOINT | OBSERVED RESULT
CC(C)[C@H](NC(=O)[C@H](CCCNC(=N)N)NC(=O)[C@H](CCCNC(=N)N)NC(=O)OCc1ccccc1)C(=O)NCCc1ccccc1 [Compound A-221] (HELM PEPTIDE1{[O=C(OCc1ccccc1)[*:2]].R.R.V.[c1ccc(CCN[*:1])cc1]}$$$$V2.0) | MBC | 512

Read the next record carefully.
Ask: Recorded MBC for CC(C)[C@H](NC(=O)[C@H](Cc1c[nH]cn1)NC(=O)[C@H](CCCCN)NC(=O)OCc1ccccc1)C(=O)NCCc1ccccc1 [Compound A-220] (HELM PEPTIDE1{[O=C(OCc1ccccc1)[*:2]].K.H.V.[c1ccc(CCN[*:1])cc1]}$$$$V2.0) , please?
Result: 512

----------
Test system: E. faecalis c.i.
ASSAY NOTES: MIC/MBC broth microdilution, E. faecalis
Format: cell-based, Enterococcus faecalis
MEASUREMENT SETUP: H2O
Each entry below lists one item and its recorded MBC value.
Hi! Could you send only the number? It should be in µg/mL, unit omitted.

SAMPLE SMILES | OBSERVED RESULT
Cc1ccccc1COC(=O)N[C@@H](CCCNC(=N)N)C(=O)N[C@@H](CC(C)C)C(=O)N[C@H](CNC(=O)/C=C/c1ccccc1)C(C)C | 256

Ask: Field request: MBC | item: CC(C)[C@@H](CNC(=O)C(=Cc1ccccc1)c1ccccc1)NC(=O)[C@H](Cc1c[nH]cn1)NC(=O)[C@H](CCCCNC(=N)N)NC(=O)OCc1ccccc1
Result: 512

Ask: # input compound: CC[C@@H](CNC(=O)/C=C/c1ccccc1)NC(=O)[C@H](CC(C)C)NC(=O)[C@H](CCCNC(=N)N)NC(=O)OCc1ccccc1 ; wanted: its MBC
Result: 256

Ask: Need MBC, item CC(C)[C@@H](CNC(=O)C(=Cc1ccccc1)c1ccccc1)NC(=O)[C@H](Cc1c[nH]cn1)NC(=O)[C@H](CCCNC(=N)N)NC(=O)OCc1ccccc1
Result: 512

----------
The entries below come with measured MIC values attached.
System: S. mutans c.i.
ASSAY NOTES: MIC/MBC broth microdilution, S. mutans
Assay type: cell-based, Streptococcus mutans
MEASUREMENT SETUP: water additive EtOH
Residues, ends and D or L forms follow the SMILES beside them.

Example cases with answers are listed next.
COMPOUND | MIC
CC[C@@H](CNC(=O)/C=C/c1ccccc1)NC(=O)[C@H](CC(C)C)NC(=O)[C@H](CCCNC(=N)N)NC(=O)OCc1ccccc1 [Compound A-213] | 4 µg/mL
CC(C)[C@H](NC(=O)[C@H](Cc1c[nH]cn1)NC(=O)[C@H](CCCCN)NC(=O)OCc1ccccc1)C(=O)NCCc1ccccc1 [Compound A-220] (HELM PEPTIDE1{[O=C(OCc1ccccc1)[*:2]].K.H.V.[c1ccc(CCN[*:1])cc1]}$$$$V2.0) | > 512 µg/mL
CC(C)C[C@H](NC(=O)[C@H](CCCCNC(=N)N)NC(=O)OCc1ccccc1)C(=O)N[C@H](CNC(=O)/C=C/c1ccccc1)C(C)C [Compound A-134] | > 512 µg/mL

Consider now this further compound.
Ask: Would you mind telling me what MIC value was observed for CC(C)[C@H](NC(=O)[C@H](Cc1c[nH]cn1)NC(=O)[C@H](CCCNC(=N)N)NC(=O)OCc1ccccc1)C(=O)NCCc1ccccc1 [Compound A-219] (HELM PEPTIDE1{[O=C(OCc1ccccc1)[*:2]].R.H.V.[c1ccc(CCN[*:1])cc1]}$$$$V2.0) ?
Result: > 512 µg/mL

----------
Below: a set of entries, each annotated with reported MIC.
Tested on: S. agalactiae ATCC 27956
ASSAY NOTES: MIC/MBC broth microdilution, S. agalactiae
Format: cell-based, Streptococcus agalactiae
MEASUREMENT SETUP: S. agalactiae, water additive DMSO
Residues, ends and D or L forms follow the SMILES beside them.
A number alone suffices; assume µg/mL.

As a guide, the following entries are already answered.
MOLECULE | UNITS SYMBOL | MIC
CC(C)C[C@H](NC(=O)[C@H](CCCNC(=N)N)NC(=O)OCc1ccccc1)C(=O)N[C@H](CNC(=O)C(=Cc1ccccc1)c1ccccc1)C(C)C | µg/mL | 16
Cc1ccccc1COC(=O)N[C@@H](CCCNC(=N)N)C(=O)N[C@@H](CC(C)C)C(=O)N[C@H](CNC(=O)/C=C/c1ccccc1)C(C)C | µg/mL | 16
CC(C)[C@@H](CNC(=O)/C=C/c1ccccc1)NC(=O)[C@H](Cc1c[nH]cn1)NC(=O)[C@H](CCCCN)NC(=O)OCc1ccccc1 | µg/mL | 512
CC(C)C[C@H](NC(=O)[C@H](CCCCNC(=N)N)NC(=O)OCc1ccccc1)C(=O)N[C@H](CNC(=O)/C=C/c1ccccc1)C(C)C | µg/mL | 32
CC(C)[C@H](NC(=O)[C@H](Cc1c[nH]cn1)NC(=O)[C@H](CCCCN)NC(=O)OCc1ccccc1)C(=O)NCCc1ccccc1 [Compound A-220] (HELM PEPTIDE1{[O=C(OCc1ccccc1)[*:2]].K.H.V.[c1ccc(CCN[*:1])cc1]}$$$$V2.0) | µg/mL | 512

Pending molecule:
Ask: Notebook: pull reported MIC for S. agalactiae ATCC 27956, entry CC(C)[C@H](NC(=O)[C@H](CCCNC(=N)N)NC(=O)[C@H](CCCNC(=N)N)NC(=O)OCc1ccccc1)C(=O)NCCc1ccccc1 [Compound A-221] (HELM PEPTIDE1{[O=C(OCc1ccccc1)[*:2]].R.R.V.[c1ccc(CCN[*:1])cc1]}$$$$V2.0)
Result: 256

----------
# Lookup of reported MBC keyed by entry
Test system: P. aeruginosa ATCC 10145
ASSAY NOTES: MIC/MBC broth microdilution, P. aeruginosa
Assay type: cell-based
MEASUREMENT SETUP: water additive EtOH
Excerpt: S. aureus (ATCC 29213),S. pyogenes (ATCC 19615),Streptococcus agalactiae (ATCC 27956),Escherichia coli (ATCC 25922),Proteus vulgaris (ATCC 6896),K. pneumoniae (ATCC 700603) andP. aeruginosa (ATCC 10145) reference strains, as well asStaphylococcus cohnii, Enterococcus faecalis, Staphylococcus schleiferi, Staphylococcus intermedius and Streptococcus mutans clinical isolates, were used to test the antibacterial activity of the peptidomimetics. […]
Value expressed in µg/mL; do not type the unit.

SAMPLE SMILES | TEST SYSTEM | OBSERVED RESULT
CC(C)[C@@H](CNC(=O)C(=Cc1ccccc1)c1ccccc1)NC(=O)[C@H](Cc1c[nH]cn1)NC(=O)[C@H](CCCNC(=N)N)NC(=O)OCc1ccccc1 | P. aeruginosa ATCC 10145 | 256

Ask: Consider the molecule shown here: Cc1ccccc1COC(=O)N[C@@H](CCCNC(=N)N)C(=O)N[C@@H](CC(C)C)C(=O)N[C@H](CNC(=O)/C=C/c1ccccc1)C(C)C What is its recorded MBC?
Result: 512

These data points were gathered from paper PMC12332667.
